- testMethodNotes: in vitro
- conditionParameters: human, hela cells, % viability
Reported viability at 28.5 h, 10 µM values are given for each entry in this list.
reportedMetric: viability at 28.5 h, 10 µM (%)

| molecule | reportedMetric | resultUnits | measuredValue |
| --- | --- | --- | --- |
| COc1ccc(-n2c(=O)c3ccccc3n(CC(=O)NC3CCCC3)c2=O)cc1 | viability at 28.5 h, 10 µM | % | 92.2 |
| CCOC(=O)c1cnc(Nc2nc3ccccc3o2)nc1CN1CCN(c2ccccc2)CC1 | viability at 28.5 h, 10 µM | % | 93.1 |
| COc1ccc(Br)cc1S(=O)(=O)Nc1nc(C)c(C(=O)O)s1 | viability at 28.5 h, 10 µM | % | 106 |
| Cc1nnc(SCC(=O)Nc2nsc(-c3ccc(Cl)cc3)n2)s1 | viability at 28.5 h, 10 µM | % | 91.5 |
| COCCNC(=O)c1cc(-c2ccc(C)cc2)nc2c1cnn2C(C)C | viability at 28.5 h, 10 µM | % | 93.8 |
| Cc1ccnc2nc(C(=O)OC(C)C(=O)N3CCCC3)nn12 (stereo not shown) | viability at 28.5 h, 10 µM | % | 88.9 |
| COc1ccc(C(NC(=O)C2CCN(CCOc3ccc(Br)cc3)CC2)c2ccco2)cc1 (stereo not shown) | viability at 28.5 h, 10 µM | % | 95.8 |
| O=C(NC(C(=O)O)C12CC3CC(CC(C3)C1)C2)c1ccc([N+](=O)[O-])cc1 (stereo not shown) | viability at 28.5 h, 10 µM | % | 94.7 |
| CC(=O)N1CCc2cc(C(=O)N[C@@H](Cc3ccccc3)C(=O)O)ccc21 | viability at 28.5 h, 10 µM | % | 102 |
| O=C(Nc1ncnc2c1nc(OCc1ccccc1)n2C1CC(O)C(CO)O1)c1ccccc1 (stereo not shown) | viability at 28.5 h, 10 µM | % | 95.3 |
| O=C(O)CCCCCNS(=O)(=O)c1ccc(Cl)cc1 | viability at 28.5 h, 10 µM | % | 81.4 |
| O=C(O)CCC(=O)Nc1ccc(-c2nc3ccccc3o2)cc1 | viability at 28.5 h, 10 µM | % | 98 |
| O=c1[nH]nc2c(SCc3ccccc3)nccn12 | viability at 28.5 h, 10 µM | % | 90.5 |
| CN1C(=O)CN(C2CCCCC2)C1=O | viability at 28.5 h, 10 µM | % | 82.3 |
| CN(C)CCN(C)Cc1ccc2ccc3cccc4ccc1c2c34 | viability at 28.5 h, 10 µM | % | 103 |
| O=C(N[C@H]1CCN2C(=O)N(c3ccc(Br)cc3)C(=O)[C@@H]2C1)c1cccnc1 | viability at 28.5 h, 10 µM | % | 104 |
| CN(C(=O)c1c[nH]nc1C1CCCN(Cc2ccnc3ccccc23)C1)C1CCCCC1 (stereo not shown) | viability at 28.5 h, 10 µM | % | 99.3 |
| CC(NC(=O)N1CCCN(Cc2ccccn2)CC1)c1cnn(C)c1 (stereo not shown) | viability at 28.5 h, 10 µM | % | 102 |
| CN1CCN(c2cc(N)nc(N)n2)CC1 | viability at 28.5 h, 10 µM | % | 107 |

====

- testMethodNotes: in vitro
- conditionParameters: human, hela cells, % viability

| compound | viability at 28.5 h, 10 µM, % |
| --- | --- |
| CNC(=O)C1(Cc2ccccc2-c2ccccc2C)CCN(C(=O)Cc2ccccc2)CC1 [CBK285901] | 106 |
| COc1ccc(Nc2nc(-c3ccccc3)c(C)s2)c(OC)c1 [CBK131709] | 106 |
| O=C(NCCSCc1c(F)cccc1Cl)Nc1ccccc1 [CBK265340] | 90.2 |
| CC(=O)Nc1cccc(-c2ccc(N3CCN(CCN(C)C)CC3)nc2)c1 [CBK036857] | 104 |
| COc1cc(SC)ccc1C(=O)N[C@H]1CCN2C(=O)[C@@H](CC(=O)O)NC(=O)[C@@H]2C1 [CBK289555] | 108 |

These entries and their values trace back to paper PMC12040169.
